Attribute: TGI
# Test system: HCC-2998 colon
# experimental_protocol: NCI tumour cell line growth inhibition, 48 h
Express the result in µM but write the number alone.

Some solved entries appear below for comparison.
- compound: "COc1cc2c(cc1OC)C(=O)/C(=C/c1cc(C)cc(C)c1)C2"
  units: "µM"
  reported_value: 2.14
- compound: "COc1ccc(C(=O)C#Cc2c[nH]c(=O)[nH]c2=O)cc1"
  units: "µM"
  reported_value: 36.4
- compound: "CC(=O)NC(C=O)C(O[C@H](C)C(=O)NC(C)C(=O)NC(CCC(N)=O)C(=O)OCc1ccccc1)C(O)C(O)COC(=O)CCNc1c2ccccc2nc2cccc([N+](=O)[O-])c12 (stereo partly drawn)"
  units: "µM"
  reported_value: 2.94
- compound: "CCSC[C@@H]1C[C@](O)(c2ccc(F)cc2)[C@@H](c2ccc(F)cc2)O1"
  units: "µM"
  reported_value: 36.6
- compound: "CN(C)c1cccc(F)c1C(=O)NC(=O)Nc1ccc(Cl)cc1"
  units: "µM"
  reported_value: 28.3
- compound: "COc1cc2oc3c(c(=O)c2c(O)c1/C=C/C(C)C)C(C=C(C)C)Oc1cc(O)ccc1-3 (stereo not drawn)"
  units: "µM"
  reported_value: 25.2

Next:
Q. Look up TGI with HCC-2998 colon for this compound: CC1(C)COC2=C(C1)C(=O)c1ccccc1C2=O
A. 3.08
